This collection of values is drawn from paper PMC8772704.

assay: Long-term storage stability of antibiotics in combination with fosfomycin spiked in plasma/CAMHB (−30 °C, −80 °C); assay type: physicochemical; details: CAMHB, combination with fosfomycin, 2 weeks at -80 °C; MQC (nominal as E14)
property label: Mean accuracy (%), Table S17

CCN1CCN(C(=O)N[C@@H](C(=O)N[C@@H]2C(=O)N3[C@@H]2SC(C)(C)[C@@H]3C(=O)O)c2ccccc2)C(=O)C1=O    92.6
CC(C)(O/N=C(\C(=O)N[C@@H]1C(=O)N2C(C(=O)[O-])=C(C[n+]3ccccc3)CS[C@H]12)c1csc(N)n1)C(=O)O    105.2
Cn1c(N)c(NC(=O)NCCN)c[n+]1CC1=C(C(=O)O)N2C(=O)[C@@H](NC(=O)/C(=N\OC(C)(C)C(=O)[O-])c3nsc(N)n3)[C@H]2SC1    94.3
C[C@@H](O)[C@H]1C(=O)N2C(C(=O)O)=C(S[C@@H]3CN[C@H](CNS(N)(=O)=O)C3)[C@H](C)[C@H]12    103.9
C[C@@H]1O[C@@H]1P(=O)(O)O    99.5
NC(=O)[C@@H]1CC[C@@H]2CN1C(=O)N2OS(=O)(=O)O    95.4

* * *

assay: Autosampler stability at 4 °C of extracted antibiotic-spiked plasma/CAMHB samples; conditions: CAMHB extracted samples, 15 h autosampler 4 °C; MQC (nominal as E14)
property label: Mean accuracy (%), Table S10

CC(C)(O/N=C(\C(=O)N[C@@H]1C(=O)N2C(C(=O)[O-])=C(C[n+]3ccccc3)CS[C@H]12)c1csc(N)n1)C(=O)O    111.0
CO/N=C(\C(=O)N[C@@H]1C(=O)N2C(C(=O)[O-])=C(C[N+]3(C)CCCC3)CS[C@H]12)c1csc(N)n1 [Cefepime, cefepime]    114.1
C[C@@H](O)[C@H]1C(=O)N2C(C(=O)O)=C(S[C@@H]3CN[C@H](CNS(N)(=O)=O)C3)[C@H](C)[C@H]12    111.3
C[C@@H](O)[C@H]1C(=O)N2C(C(=O)O)=C(S[C@@H]3CN[C@H](C(=O)N(C)C)C3)[C@H](C)[C@H]12    100.8
NC(=O)[C@@H]1CC[C@@H]2CN1C(=O)N2OS(=O)(=O)O    104.9
C[C@@H]1O[C@@H]1P(=O)(O)O    94.8
C[C@H]1COc2c(N3CCN(C)CC3)c(F)cc3c(=O)c(C(=O)O)cn1c23    103.9

* * *

test: Long-term storage stability of antibiotics in combination with fosfomycin spiked in plasma/CAMHB (−30 °C, −80 °C); format: physicochemical; settings: plasma, combination with fosfomycin, 2 weeks at -30 °C; HQC (nominal as E15)
property label: Mean accuracy (%), Table S11

C[C@@H](O)[C@H]1C(=O)N2C(C(=O)O)=C(S[C@@H]3CN[C@H](CNS(N)(=O)=O)C3)[C@H](C)[C@H]12    98.0
CCN1CCN(C(=O)N[C@@H](C(=O)N[C@@H]2C(=O)N3[C@@H]2SC(C)(C)[C@@H]3C(=O)O)c2ccccc2)C(=O)C1=O    88.5
Cn1c(N)c(NC(=O)NCCN)c[n+]1CC1=C(C(=O)O)N2C(=O)[C@@H](NC(=O)/C(=N\OC(C)(C)C(=O)[O-])c3nsc(N)n3)[C@H]2SC1    86.5
CO/N=C(\C(=O)N[C@@H]1C(=O)N2C(C(=O)[O-])=C(C[N+]3(C)CCCC3)CS[C@H]12)c1csc(N)n1 [Cefepime, cefepime]    89.3
CN(C)c1cc(NC(=O)CNC(C)(C)C)c(O)c2c1C[C@H]1C[C@H]3[C@H](N(C)C)C(O)=C(C(N)=O)C(=O)[C@@]3(O)C(O)=C1C2=O    102.5
C[C@@H]1O[C@@H]1P(=O)(O)O    98.4
CC(C)(O/N=C(\C(=O)N[C@@H]1C(=O)N2C(C(=O)[O-])=C(C[n+]3ccccc3)CS[C@H]12)c1csc(N)n1)C(=O)O    99.5
C[C@H]1[C@H](NC(=O)/C(=N\OC(C)(C)C(=O)O)c2csc(N)n2)C(=O)N1S(=O)(=O)O    97.3
C[C@@H](O)[C@H]1C(=O)N2C(C(=O)O)=C(S[C@@H]3CN[C@H](C(=O)N(C)C)C3)[C@H](C)[C@H]12    93.3
NC(=O)[C@@H]1CC[C@@H]2CN1C(=O)N2OS(=O)(=O)O    93.9
C[C@]1(Cn2ccnn2)[C@H](C(=O)O)N2C(=O)C[C@H]2S1(=O)=O    106.0
